Field: IC50. Provide a value for each of the molecules that follow.
target: human TASK-3 (Homo sapiens); test: Two-electrode voltage clamp analysis of human TASK-3 channel in Xenopus laevis oocytes (B-1); format: cell-based; parameters: expressed in transfected cells; host or cells: Xenopus laevis oocytes injected with cRNA; conditions: Xenopus laevis oocytes injected with TASK-3 cRNA, 21-22° C.
Sequence (Q9NPC2 whole entry): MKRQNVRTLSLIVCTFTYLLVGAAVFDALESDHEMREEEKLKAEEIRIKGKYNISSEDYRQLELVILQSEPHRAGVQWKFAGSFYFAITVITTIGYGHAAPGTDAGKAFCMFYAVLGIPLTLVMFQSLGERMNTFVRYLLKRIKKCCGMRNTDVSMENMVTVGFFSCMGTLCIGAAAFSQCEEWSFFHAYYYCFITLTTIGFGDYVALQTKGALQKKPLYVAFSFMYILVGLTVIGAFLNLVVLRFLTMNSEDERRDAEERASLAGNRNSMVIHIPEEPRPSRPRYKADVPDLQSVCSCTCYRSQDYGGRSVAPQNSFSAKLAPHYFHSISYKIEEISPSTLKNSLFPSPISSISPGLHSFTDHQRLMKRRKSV
Answers are plain numbers, in nM.

For orientation, consider the following solved cases.
{"columns": ["MOLECULE", "STUDY_TARGET", "EXPERIMENTAL_READOUT", "VALUE_MEASURED"],
 "data": [
  ["O=C(c1ccccc1F)N1C2CCC1CN(Cc1c(-c3ccc(Cl)cc3)nc3ccccn13)C2 [Example 102]", "human TASK-3 (Homo sapiens)", "IC50", 4.3],
  ["COc1cccc(C(=O)N2CC3CCC2CN3Cc2c(-c3ccc(Cl)cn3)nc3ccccn23)n1 (single isomer, unassigned; enantiomer 1) [Example 26]", "human TASK-3 (Homo sapiens)", "IC50", 12],
  ["O=C(C1CCCO1)N1C2CC1CN(Cc1c(-c3ccc(Cl)cc3)nc3ccccn13)C2 (racemic) [Example 115]", "human TASK-3 (Homo sapiens)", "IC50", 186]
]}

// next item, IC50 requested
### Prompt What does the data say about its IC50? Entry: O=C(C1CCCC1)N1CC2CCC(C1)N2Cc1c(-c2ccc(Cl)cc2)nc2ccccn12 [Example 86]
### Response 58.4
